These data points were gathered from PubChem BioAssay (NCI).

# Test system: HOP-92 NSCLC
# PROTOCOL_TEXT: NCI-60 one-dose screen, 48 h (100 = growth as untreated, 0 = no growth, -100 = all killed)
# REPORTED_CONDITIONS: 10 µM
About 83,000 compounds went through this panel and 20% of them were active in at least one assay; those are over-represented in the sample as a whole.
RECORDED_METRIC: growth (%)
Response body: numeric value in %, unit text excluded.

The measured growth that COc1ccc(-c2nn(-c3cccc(Cl)c3)cc2-c2cc(-c3cccs3)[nH]c(=S)n2)cc1 showed for HOP-92 NSCLC is 94

# value of growth, HOP-92 NSCLC, item C[N+]1(CCCCC[N+]2(C)CCCC2)CCCC1 = 74.6

The reported HOP-92 NSCLC growth of CCOC(=O)c1cc(C(=O)c2cc(OC)c(OC)c(OC)c2)n2c1ccc1c3cccnc3ccc12 is 55.5

Summary: CCN(CC)CCOC(=O)c1cc(OCc2ccccc2)c(OCc2ccccc2)c(OCc2ccccc2)c1 , HOP-92 NSCLC, growth = 40

# growth measured on HOP-92 NSCLC for item CCOC(=O)c1cc(C(=O)c2ccc(Cl)cc2)n2ccc(-c3cc[n+](CC(=O)c4ccc(OC)cc4)cc3)cc12 = 67.8

Form: item CC(C)(C)OC(=O)CC(S(=O)(=O)c1ccccc1)S(=O)(=O)c1ccccc1 ; test system HOP-92 NSCLC; growth: 122

====

# Tested on: SK-MEL-28 melanoma
# PROTOCOL_TEXT: NCI-60 one-dose screen, 48 h (100 = growth as untreated, 0 = no growth, -100 = all killed)
# REPORTED_CONDITIONS: 10 µM
The panel holds about 83,000 compounds, 20% with a hit somewhere; the sample as a whole holds those more often.
Provide the reported growth of each item.
Please reply with the bare figure in % and do not write the unit itself.

Record for CC(=O)OC1C=CC(OC(C)=O)O1 (centres undefined) under target or system SK-MEL-28 melanoma: growth reported as 110

Record NC1=NC(c2ccc(Cl)cc2)C2=C(N1)/C(=C/c1ccc(Cl)cc1)CCC2 (centres undefined) has SK-MEL-28 melanoma growth equal to 99.2

Form: item COC1=CC(=O)OC(c2ccc(OC)cc2)C1 (centres undefined) ; test system SK-MEL-28 melanoma; growth: 123

Form field, growth with SK-MEL-28 melanoma, item O=[N+]([O-])c1cccc(/C=N/NC(=S)NC23CC4CC(CC(C4)C2)C3)c1 : 85.4

====

# Test system: TK-10 renal
# PROTOCOL_TEXT: NCI-60 one-dose screen, 48 h (100 = growth as untreated, 0 = no growth, -100 = all killed)
# REPORTED_CONDITIONS: 10 µM
About 83,000 compounds went through this panel and 20% of them were active in at least one assay; those are over-represented in the sample as a whole.
Label satisfied when growth is strictly below 70%; otherwise label not satisfied.

Identify whether the compound CCOC(=O)/C(=C(\C)N)C1CC(=O)NC1=O (stereo not given) records growth below 70%. not satisfied

Please state whether growth is below 70% for CCCCCCCCCCCC[n+]1c(C)cc(N)c2ccccc21 satisfied

Is the reported growth for CN1CCN(CCC(=O)Nc2cccc(-n3cc(-c4ccncc4)c(-c4ccc(Cl)c(O)c4)n3)c2)CC1 strictly below 70%? not satisfied

Given the entry Cc1ccc(NCCN(C)CC(C)O)c2c(=O)c3ccc(Cl)cc3sc12 (stereo not given) , would its reported growth be below 70%? not satisfied
